These measurements were taken from PubChem BioAssay.

# TESTED_TARGET: NADPH oxidase 4 (Homo sapiens)
# ASSAY_SUMMARY: NOX4-dependent H2O2 signal modulators, primary screen, NOX inhibitor project, cell-based, HEK293-NOX4, tetracycline-induced, Amplex Red fluorescence (AID 1160)
# CONDITION_PARAMETERS: 45 min, higher = more signal, called active from +8 up or from −8 down
Class (required): determined from z-score; valid ranges are low bin = under -0.3, mid bin = from -0.3 up to 0.3, high bin = 0.3 and over

Illustrative cases are given below, each with its answer.
- Cc1ccc(C2CC=C(C(=O)O)CN2S(=O)(=O)c2ccc(C)cc2)cc1 (stereo not given): low bin
- CCN1C(=O)[C@H]2[C@H]3[C@H](O)[C@H](O)CC(=NOC[C@@H](C)[C@H](OCc4ccccc4)C(C)C)[C@@H]3CC[C@H]2C1=O: high bin
- C=C(/C(=C/C[C@H](OC(=O)c1ccncc1)c1ccc(OCCO)cc1)c1cnc2ccccc2c1)C(C)C: low bin
- CCCC[C@H]1OB(O)C[C@H]2C1=C(C)C[C@H]1C(=O)N(C)C(=O)[C@H]12: high bin
- CCN1C(=O)[C@H]2[C@H]3[C@H](O)[C@H](O)CC(=NOC(C)CN4CCCCc5nc(C)c(C)cc54)[C@@H]3CC[C@H]2C1=O (stereo not given in full): mid bin

Band for Cc1cc2c(c(=O)o1)[C@H](O)[C@H]1O[C@H]1C2=O ?
low bin

Band for COc1ccc(CCNC(=O)[C@@H]2c3ccccc3C(=O)N(c3ccc(C)cn3)[C@H]2c2ccc(CO)cc2)cc1 ?
low bin

Band for C=CCN1C(=O)[C@]2(O[C@H](CCn3cc(CCO)nn3)[C@@H]([Si](C)(C)c3ccc(OC)cc3)[C@@H]2C)c2cc(N3CCOC3=O)ccc21 ?
high bin

Band for CCOC(=O)[C@H](CC(C)C)NC(=O)CCC1CC(OC(=O)NCc2cccc3ccccc23)CC2(CCCC(COC(=O)NCCc3ccccc3OC)O2)O1 (stereo not given in full) ?
high bin

Band for COc1ccccc1CN1C(=O)c2ccccc2[C@@]2(Cc3ccccc3N(C(C)C)C2=O)[C@@H]1c1ccc(CO)cc1 ?
mid bin
